molecular target: NEK2 kinase (Accession No. NP-002488) (Homo sapiens); construct: purchased ThermoFisher Scientific (Invitrogen); assay: HotSpot Kinase Assay, NEK2; assay type: biochemical; conditions: HotSpot Kinase Assay; read-out: NEK2 IC50
Sequence (P51955 whole entry): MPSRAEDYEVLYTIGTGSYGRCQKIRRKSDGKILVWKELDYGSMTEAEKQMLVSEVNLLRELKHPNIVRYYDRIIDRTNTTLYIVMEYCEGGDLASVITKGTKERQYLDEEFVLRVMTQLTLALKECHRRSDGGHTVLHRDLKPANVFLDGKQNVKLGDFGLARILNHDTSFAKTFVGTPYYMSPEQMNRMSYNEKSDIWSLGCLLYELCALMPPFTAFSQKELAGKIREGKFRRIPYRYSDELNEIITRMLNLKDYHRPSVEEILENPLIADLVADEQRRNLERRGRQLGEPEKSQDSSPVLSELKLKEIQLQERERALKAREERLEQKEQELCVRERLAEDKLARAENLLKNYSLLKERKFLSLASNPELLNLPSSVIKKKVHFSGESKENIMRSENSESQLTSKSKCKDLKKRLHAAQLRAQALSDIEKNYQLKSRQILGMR
Listed here are molecules together with their documented IC50.

Field: example entries. Status: answers known.
N#Cc1c(Nc2nc(Nc3ccc(CN4CCOCC4)cc3)ncc2Cl)cccc1OCc1ccccc1F [Compound 1]
> 0.015 µM
COc1cnc(Nc2ccc(N3CCNCC3)cc2)nc1Nc1cccc(OCc2ccccc2F)c1C#N [Compound 10]
≤ 0.005 µM
Cc1cnc(Nc2ccc(N3CCNCC3)cc2)nc1Nc1cccc(OCc2ccccc2F)c1C#N [Compound 12]
≤ 0.005 µM
C[C@@H](Oc1cccc(Nc2nc(Nc3ccc(N4CCN(C)CC4)cc3)ncc2Cl)c1C#N)c1ccccc1F [Compound 4]
> 0.015 µM

IN: Request the reported IC50 associated with N#Cc1c(Nc2nc(Nc3cnn(C4CCNCC4)c3)ncc2Cl)cccc1OCc1ccccc1F [Compound 31]
OUT: 0.005 to 0.015 µM

IN: Request the reported IC50 associated with N#Cc1c(Nc2nc(Nc3ccc(N4CCNCC4)cc3)ncc2Cl)cccc1OCc1ccc(F)cc1 [Compound 13]
OUT: > 0.015 µM
